test system: ALP in NHAC (normal human articular chondrocytes); experiment: Alkaline Phosphatase (ALP) activity assay: ALP staining and quantitation in NHACs (prevention of chondrocyte hypertrophy); assay type: cell-based; details: Chondrocyte, 288 h, human IL-1 beta 10 ng/mL, 12 days, read-out: ALP in NHAC (% Efficacy)
Assignment: determine reported Emax for the given compounds.
Answers are plain numbers, in %.

>>> reported_value("COc1ccc(NC(=O)[C@]23C[C@@]2(c2cn(C)nc2C(F)(F)F)[C@H]2O[C@@H]3C[C@@H]2O)cc1C(F)(F)F (racemic)")
27

Provide Emax for all items below, preserving their order.
1. N#Cc1ccc(C(F)(F)F)cc1NC(=O)[C@]12C[C@@]1(c1ccnc(F)c1)[C@H]1O[C@@H]2C[C@@H]1O (racemic)
2. Cn1cc([C@@]23C[C@]2(C(=O)Nc2ccc(Cl)c(C(F)(F)F)c2)[C@H]2C[C@H](O)[C@@H]3O2)c(C(F)(F)F)n1 (racemic)
3. Cn1cc([C@@]23C[C@]2(C(=O)Nc2cccc(C(F)(F)F)c2)[C@H]2C[C@H](O)[C@@H]3O2)c(C(F)(F)F)n1 (racemic)
4. O=C(Nc1ccc(C(F)(F)F)c(F)c1)[C@]12C[C@@]1(c1ccnc(F)c1)[C@H]1O[C@@H]2C[C@@H]1O (racemic)
5. CCOc1cc(C(F)(F)F)cc(NC(=O)[C@]23C[C@@]2(c2cn(C)nc2C(F)(F)F)[C@H]2O[C@@H]3C[C@@H]2O)n1 (racemic)
6. Cn1cc([C@@]23C[C@]2(C(=O)Nc2cc(Cl)cc(C(F)(F)F)c2)[C@H]2C[C@H](O)[C@@H]3O2)c(C(F)(F)F)n1 (racemic)
7. O=C(Nc1cc(C(F)(F)F)ccn1)[C@]12C[C@@]1(c1ccnc(F)c1)[C@H]1O[C@@H]2C[C@@H]1O (racemic)

Result:
[40, 29, 35, 28, 40, 35, 28]
